System: HCT-116
Assay: Cytotoxicity against human HCT116 cells assessed as cell growth inhibition after 48 hrs by sulforhodamine B assay
Type: functional, cell-based
Conditions: HCT-116, 48 h
parameter: IC50

* CC(C)=CCC/C(C)=C/[C@H]1OC(=O)C[C@]12C[C@H](O)C=C[C@H]2O | > 65 µM
* CC(=O)O[C@@H]1CCC(=O)[C@@]2(CC(=O)O[C@@H]2/C=C(\C)CCC=C(C)C)C1 | > 30 µM
* CC(=O)O[C@@H]1C=CC(=O)[C@@]2(CC(=O)O[C@@H]2/C=C(\C)CCC=C(C)C)C1 | 1.97 to 2.7 µM
* CC(=O)O[C@@H]1CCC(=O)[C@@]2(CC(=O)O[C@@H]2CC(C)CCCC(C)C)C1 (some centres undefined) | > 30 µM
